Target: Full length human recombinant HDAC6 protein (Homo sapiens, UniProt Q9UBN7)
Assay: In vitro histone deacetylase assay: enzymatic HDAC6 electrophoretic mobility shift assay
Settings: 1 nM enzyme, 2 μM peptide substrate RHKK(Ac)-NH2, 25° C., 12 concentrations; read-out: Inhibitory Concentration (IC50) Values against HDAC6, Activity Range
Form field: IC50 (one value per entry).

Solved entries (count: 4):
[[record]]
molecule = "C[C@H]1COc2cc(C(=O)NO)ccc2CN1C(=O)C(C)(C)c1ccc(F)cc1"
system_tested = "Full length human recombinant HDAC6 protein (Homo sapiens, UniProt Q9UBN7)"
result_value = "≤ 100 nM"

[[record]]
molecule = "COCCC(C(=O)N1CCOc2cc(C(=O)NO)ccc2C1)c1ccccn1 (centres unmarked)"
system_tested = "Full length human recombinant HDAC6 protein (Homo sapiens, UniProt Q9UBN7)"
result_value = "100 to 500 nM"

[[record]]
molecule = "C[C@H]1COc2cc(C(=O)NO)ccc2CN1C(=O)C1CCCCC1"
system_tested = "Full length human recombinant HDAC6 protein (Homo sapiens, UniProt Q9UBN7)"
result_value = "≤ 100 nM"

[[record]]
molecule = "O=C(NO)c1ccc2c(c1)OCCN(C(=O)CCC(F)(F)F)C2"
system_tested = "Full length human recombinant HDAC6 protein (Homo sapiens, UniProt Q9UBN7)"
result_value = "100 to 500 nM"


// below: IC50 requested for another molecule
### Prompt IC50 for `O=C(NO)c1ccc2c(c1)OCCN(C(=O)c1ccc3c(c1)CCO3)C2` ?
### Response 100 to 500 nM

###

Form field: IC50 (one value per entry).
Molecular target: Full length human recombinant HDAC6 protein (Homo sapiens, UniProt Q9UBN7)
Test: In vitro histone deacetylase assay: enzymatic HDAC6 electrophoretic mobility shift assay
Settings: 1 nM enzyme, 2 μM peptide substrate RHKK(Ac)-NH2, 25° C., 12 concentrations; read-out: Inhibitory Concentration (IC50) Values against HDAC6, Activity Range

[[record]]
record_smiles = "O=C(NO)c1ccc2c(n1)OCCN(C(=O)C1CCCCC1)C2"
measurement_name = "IC50"
result_value = "100 to 500 nM"

[[record]]
record_smiles = "COC1(C(=O)N2CCOc3cc(C(=O)NO)ccc3C2)CCC1"
measurement_name = "IC50"
result_value = "≤ 100 nM"


### Prompt IC50 for `CC1(C(=O)N2CCOc3cc(C(=O)NO)ccc3C2)CCCC1` ?
### Response ≤ 100 nM

### Prompt IC50 for `CC(C)[C@H]1c2ccc(C(=O)NO)cc2OCCN1C(=O)C1COC1` ?
### Response > 500 nM

### Prompt IC50 for `CC[C@H]1COc2cc(C(=O)NO)ccc2CN1C(=O)C1CCOCC1` ?
### Response ≤ 100 nM

###

Form field: IC50 (one value per entry).
Biological target: Full length human recombinant HDAC6 protein (Homo sapiens, UniProt Q9UBN7)
Experiment: In vitro histone deacetylase assay: enzymatic HDAC6 electrophoretic mobility shift assay
Details: 1 nM enzyme, 2 μM peptide substrate RHKK(Ac)-NH2, 25° C., 12 concentrations; read-out: Inhibitory Concentration (IC50) Values against HDAC6, Activity Range
Method: The enzymatic HDAC6 assay was performed using electrophoretic mobility shift assay. […] The terminated assay plates were analyzed on LabChip® 3000 microfluidic electrophoresis instrument (Perkin Elmer/Caliper Life Sciences). The fluorescence intensity of the electrophoretically separated de-acetylated product and substrate peptide was measured. […] Percent inhibition (Pinh) is determined using the following equation: […]

[[record]]
compound = "O=C(NO)c1ccc2c(c1)OCCN(C(=O)C1CCOCC1)C2"
measurement_name = "IC50"
result_value = "≤ 100 nM"


// below: IC50 requested for another compound
### Prompt IC50 for `CC(C)(C(=O)N1CCOc2cc(C(=O)NO)ccc2C1)c1ccc(F)cc1` ?
### Response 100 to 500 nM

###

Target: Full length human recombinant HDAC6 protein (Homo sapiens)
Experiment: In vitro histone deacetylase assay: enzymatic HDAC6 electrophoretic mobility shift assay
Settings: 1 nM enzyme, 2 μM peptide substrate RHKK(Ac)-NH2, 25° C., 12 concentrations; read-out: Inhibitory Concentration (IC50) Values against HDAC6, Activity Range
Form field: IC50 (one value per entry).

Solved entries (count: 10):
[[record]]
compound = "COc1ccc2[nH]cc(CC(=O)N3CCOc4cc(C(=O)NO)ccc4C3)c2c1"
measurement_name = "IC50"
result_value = "> 500 nM"

[[record]]
compound = "COC1(C(=O)N2Cc3ccc(C(=O)NO)cc3OC[C@@H]2C)CCC1"
measurement_name = "IC50"
result_value = "≤ 100 nM"

[[record]]
compound = "CC(C)(C(=O)N1CCOc2cc(C(=O)NO)ccc2C1)c1ccc(-c2ccccc2)cc1"
measurement_name = "IC50"
result_value = "100 to 500 nM"

[[record]]
compound = "C[C@H]1COc2cc(C(=O)NO)ccc2CN1C(=O)C(C)(C)c1cccnc1"
measurement_name = "IC50"
result_value = "≤ 100 nM"

[[record]]
compound = "O=C(NO)c1ccc2c(c1)OCCN(C(=O)C1(c3cccs3)CC1)C2"
measurement_name = "IC50"
result_value = "≤ 100 nM"

[[record]]
compound = "COC[C@H]1CN(C(=O)C2CCOCC2)Cc2ccc(C(=O)NO)cc2O1"
measurement_name = "IC50"
result_value = "100 to 500 nM"

[[record]]
compound = "CC1(C(=O)N2CC(=O)Nc3ccc(C(=O)NO)cc3C2)CCC1"
measurement_name = "IC50"
result_value = "100 to 500 nM"

[[record]]
compound = "CC(=O)N1CCC(C(=O)N2Cc3ccc(C(=O)NO)cc3OC[C@@H]2C)C1 (stereo partly drawn)"
measurement_name = "IC50"
result_value = "≤ 100 nM"

[[record]]
compound = "O=C(NO)c1ccc2c(c1)OCCN(C(=O)CC1CC1)C2"
measurement_name = "IC50"
result_value = "≤ 100 nM"

[[record]]
compound = "COc1ccc(CC(=O)N2CCOc3cc(C(=O)NO)ccc3C2)cc1"
measurement_name = "IC50"
result_value = "> 500 nM"


### Prompt IC50 for O=C(NO)c1ccc2c(c1)OCCN(C(=O)C(c1ccccc1)N1CCC(O)CC1)C2 (stereo not drawn) ?
### Response 100 to 500 nM

### Prompt IC50 for COC(C)(C(=O)N1CCOc2cc(C(=O)NO)ccc2C1)c1ccccc1 (stereo not drawn) ?
### Response 100 to 500 nM

###

Form field: pIC50 (one value per entry).
Target: Full length human recombinant HDAC6 protein (Homo sapiens)
Sequence (Q9UBN7 1-1215): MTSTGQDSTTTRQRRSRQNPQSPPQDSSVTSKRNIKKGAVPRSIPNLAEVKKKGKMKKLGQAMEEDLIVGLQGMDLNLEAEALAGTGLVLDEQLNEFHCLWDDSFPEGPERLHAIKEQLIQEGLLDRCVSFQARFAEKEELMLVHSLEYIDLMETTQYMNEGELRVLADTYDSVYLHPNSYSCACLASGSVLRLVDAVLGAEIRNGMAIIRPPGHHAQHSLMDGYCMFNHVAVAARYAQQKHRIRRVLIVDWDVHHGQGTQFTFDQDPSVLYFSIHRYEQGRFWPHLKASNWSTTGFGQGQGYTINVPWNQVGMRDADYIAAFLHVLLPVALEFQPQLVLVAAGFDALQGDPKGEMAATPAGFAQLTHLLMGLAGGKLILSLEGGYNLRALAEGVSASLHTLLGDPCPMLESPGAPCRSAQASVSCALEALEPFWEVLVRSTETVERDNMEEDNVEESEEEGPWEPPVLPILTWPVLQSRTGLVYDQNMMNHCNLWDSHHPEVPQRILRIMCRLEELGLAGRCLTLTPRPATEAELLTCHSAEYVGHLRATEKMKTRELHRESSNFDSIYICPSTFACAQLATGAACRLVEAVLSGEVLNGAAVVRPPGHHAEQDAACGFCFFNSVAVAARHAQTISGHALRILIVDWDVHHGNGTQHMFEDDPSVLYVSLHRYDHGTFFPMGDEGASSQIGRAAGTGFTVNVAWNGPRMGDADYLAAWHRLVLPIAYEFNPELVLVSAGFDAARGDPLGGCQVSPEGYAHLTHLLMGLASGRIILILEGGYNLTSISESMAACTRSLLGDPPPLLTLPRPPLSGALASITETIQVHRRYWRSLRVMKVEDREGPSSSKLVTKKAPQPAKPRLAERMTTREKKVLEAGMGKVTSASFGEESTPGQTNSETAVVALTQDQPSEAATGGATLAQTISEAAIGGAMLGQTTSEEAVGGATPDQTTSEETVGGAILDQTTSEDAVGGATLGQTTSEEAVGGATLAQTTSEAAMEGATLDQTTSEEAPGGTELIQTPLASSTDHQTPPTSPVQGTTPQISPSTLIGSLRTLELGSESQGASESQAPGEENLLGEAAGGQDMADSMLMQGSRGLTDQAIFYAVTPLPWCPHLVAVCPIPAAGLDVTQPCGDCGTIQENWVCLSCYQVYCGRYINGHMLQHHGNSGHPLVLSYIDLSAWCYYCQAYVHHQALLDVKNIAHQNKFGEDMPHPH
Assay: In vitro histone deacetylase assay: enzymatic HDAC6 electrophoretic mobility shift assay
Details: 1 nM enzyme, 2 μM peptide substrate RHKK(Ac)-NH2, 25° C., 12 concentrations; read-out: Inhibitory Concentration (IC50) Values against HDAC6, Activity Range
Method: The enzymatic HDAC6 assay was performed using electrophoretic mobility shift assay. […] The terminated assay plates were analyzed on LabChip® 3000 microfluidic electrophoresis instrument (Perkin Elmer/Caliper Life Sciences). The fluorescence intensity of the electrophoretically separated de-acetylated product and substrate peptide was measured. […] Percent inhibition (Pinh) is determined using the following equation: […]
pIC50: −log10 of the molar value.

[[record]]
molecule = "CC(C)(C(=O)N1CCOc2cc(C(=O)NO)ccc2C1)c1cccnc1"
result_value = "6.30 to 7.00"

[[record]]
molecule = "COC[C@@H]1CN(C(=O)C2(C)CCC2)Cc2ccc(C(=O)NO)cc2O1"
result_value = "≥ 7.00"

[[record]]
molecule = "CC(C)[C@@H]1CN(C=O)Cc2ccc(C(=O)NO)cc2O1"
result_value = "6.30 to 7.00"

[[record]]
molecule = "O=C(NO)c1ccc2c(c1)OCCN(C(=O)C1(Cn3cccn3)CC1)C2"
result_value = "≥ 7.00"

[[record]]
molecule = "C[C@H]1COc2cc(C(=O)NO)ccc2CN1C(=O)C1CCS(=O)(=O)C1 (some centres unmarked)"
result_value = "≥ 7.00"

[[record]]
molecule = "CO[C@H]1CC[C@H](C(=O)N2CCOc3cc(C(=O)NO)ccc3[C@@H]2C)CC1 (single isomer, unassigned)"
result_value = "≥ 7.00"


### Prompt Request - read-out pIC50 | tested on Full length human recombinant HDAC6 protein (Homo sapiens) | molecule `CC(C)(C)C(=O)N1CCOc2cc(C(=O)NO)ccc2C1`
### Response ≥ 7.00

### Prompt Request - read-out pIC50 | tested on Full length human recombinant HDAC6 protein (Homo sapiens) | molecule `Cn1c(C(=O)N2CCOc3cc(C(=O)NO)ccc3C2)cc2ccccc21`
### Response ≥ 7.00

### Prompt Request - read-out pIC50 | tested on Full length human recombinant HDAC6 protein (Homo sapiens) | molecule CC(C(=O)N1CCOc2cc(C(=O)NO)ccc2C1)N1CCS(=O)(=O)CC1 (centres unmarked)
### Response < 6.30

### Prompt Request - read-out pIC50 | tested on Full length human recombinant HDAC6 protein (Homo sapiens) | molecule `O=C(NO)c1ccc2c(c1)OCCN(C(=O)[C@@H]1CCOC1)C2`
### Response ≥ 7.00

### Prompt Request - read-out pIC50 | tested on Full length human recombinant HDAC6 protein (Homo sapiens) | molecule C[C@H]1COc2cc(C(=O)NO)ccc2CN1C(=O)C1CCCOCC1 (some centres unmarked)
### Response ≥ 7.00

### Prompt Request - read-out pIC50 | tested on Full length human recombinant HDAC6 protein (Homo sapiens) | molecule `C[C@H]1COc2cc(C(=O)NO)ccc2CN1C(=O)[C@H]1CCCCO1`
### Response ≥ 7.00

### Prompt Request - read-out pIC50 | tested on Full length human recombinant HDAC6 protein (Homo sapiens) | molecule `C[C@H]1COc2cc(C(=O)NO)ccc2CN1C(=O)C1CCC1`
### Response ≥ 7.00

### Prompt Request - read-out pIC50 | tested on Full length human recombinant HDAC6 protein (Homo sapiens) | molecule C[C@H]1COc2cc(C(=O)NO)ccc2CN1C(=O)C1CCC(OC(F)(F)F)CC1 (single isomer, unassigned)
### Response ≥ 7.00

### Prompt Request - read-out pIC50 | tested on Full length human recombinant HDAC6 protein (Homo sapiens) | molecule `C[C@H]1COc2cc(C(=O)NO)ccc2CN1C(=O)[C@H]1CCOC(C)(C)C1`
### Response ≥ 7.00

### Prompt Request - read-out pIC50 | tested on Full length human recombinant HDAC6 protein (Homo sapiens) | molecule `O=C(NO)c1ccc2c(c1)OCCN(C(=O)C1CCC(F)(F)CC1)C2`
### Response 6.30 to 7.00

### Prompt Request - read-out pIC50 | tested on Full length human recombinant HDAC6 protein (Homo sapiens) | molecule `C[C@H]1COc2cc(C(=O)NO)ccc2CN1C(=O)[C@@H]1CCCCO1`
### Response ≥ 7.00
